Assay: NCI Yeast Anticancer Drug Screen. Data for the mlh1 rad18 strain (AID 175)
Settings: S. cerevisiae mlh1 rad18 strain growth inhibition; at 50.0 µM; stronger effect = higher value
The panel holds about 79,000 compounds, 15% with a hit somewhere; the sample as a whole holds those more often.
Here the recorded growth inhibition is given for each entry.
Use % as the unit, but write only the number.

# annotated cases, reported growth inhibition shown
[
  {
    "compound": "CSc1n[nH]c(N)c1C(=O)Nc1ccc(C)cc1",
    "growth inhibition, %": 10.6
  },
  {
    "compound": "NCCC(=O)O",
    "growth inhibition, %": 16.9
  },
  {
    "compound": "CN1CN(c2ccccc2)C2(CCN(c3nc4ccccc4s3)CC2)C1=O",
    "growth inhibition, %": -17.1
  },
  {
    "compound": "N#CC(N)(C(=O)C(=O)NCCCNC(=O)C(=O)C(N)(C#N)c1ccc(Cl)cc1)c1ccc(Cl)cc1 (stereo not drawn)",
    "growth inhibition, %": -28.7
  },
  {
    "compound": "O=C1C=C2CCC(c3ccc(O)cc3)CC2CC1 (stereo not drawn)",
    "growth inhibition, %": -8
  },
  {
    "compound": "C[n+]1c(I)ccc2ccccc21",
    "growth inhibition, %": 36.3
  }
]

Please look up its growth inhibition: C=C1C2CCC3(CCC4C5(C)CCCC4(CN(C(C)=O)C5)C3C2)C1O (stereo not drawn)
8.95

Check O=C(N/N=C\c1ccc2c(c1)CCC2)c1cccc2ccccc12 too.
-2.9

Check CCCCCCCCCCCCCCCCCCCCCCCC too.
-13.2

Check CC1OC(OC2C(OC3C(OC4CCC5(C)C(CCC6(C)C5CC=C5C7CC(C)(C)CCC7(C(=O)O)CCC56C)C4(C)C)OCC(O)C3O)OC(CO)C(O)C2O)C(O)C(O)C1O (stereo not drawn) too.
93.8

Check COc1ccc(CCNC(=S)/N=C\C2=C(O)c3ccccc3C2=O)cc1OC too.
-19.3

----------
Test: NCI Yeast Anticancer Drug Screen. Data for the sgs1 mgt1 strain (AID 161);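 also: 0% = growth of cultures given vehicle only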
Settings: S. cerevisiae sgs1 mgt1 strain, at 50.0 µM, stronger effect = higher value
The panel holds about 79,000 compounds, 15% with a hit somewhere; the sample as a whole holds those more often. The source made the active and inactive calls. No stated cut-off is given here; in the data, active means growth inhibition above about 70%; inactive means the rest.
Here the recorded growth inhibition is given for each entry.

# annotated cases, reported growth inhibition shown
[
  {
    "compound": "CCOc1ccc(NC=O)cc1",
    "growth inhibition": "5.2% (inactive)"
  },
  {
    "compound": "CCOC(=O)CC1(c2ccccc2)OC(=O)c2ccccc21 (stereo not given)",
    "growth inhibition": "8.65% (inactive)"
  },
  {
    "compound": "O=c1c2ccccc2oc2cc([N+](=O)[O-])cc([N+](=O)[O-])c12",
    "growth inhibition": "-14.4% (inactive)"
  }
]

Please look up its growth inhibition: NC(=O)N=C(NC(N)=O)NC(N)=O
-10.2% (inactive)

Check Cc1ccc(C(=O)Oc2ccccc2)cc1 too.
-11.7% (inactive)

Check Cc1cccc(C(=O)c2ccccc2)c1C(=O)O too.
4.55% (inactive)

----------
Test: NCI Yeast Anticancer Drug Screen. Data for the rad50 strain (AID 155);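 also: 0% = growth of vehicle-only cultures of the same strain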
Settings: S. cerevisiae rad50 strain growth inhibition; at 50.0 µM; stronger effect = higher value
Experimental: Growth inhibition of yeast strains with defined genetic alterations is measured as a screen for potential anti-cancer activity. Selected strains with alterations in DNA damage repair or cell cycle control were exposed to compounds and growth inhibition was measured relative to vehicle treated controls. The strain used in this assay is rad50
The panel holds about 79,000 compounds, 15% with a hit somewhere; the sample as a whole holds those more often.
Here the recorded growth inhibition is given for each entry.
Use % as the unit, but write only the number.

# annotated cases, reported growth inhibition shown
[
  {
    "compound": "CC(C)[C@@]12O[C@@H]1CC13OC1[C@@H](O)CC[C@@]32O (some centres not stated)",
    "attribute_measured": "growth inhibition",
    "experimental_result": -16.6
  },
  {
    "compound": "C/C(CC/C(C)=N/NC(N)=O)=N/NC(N)=O",
    "attribute_measured": "growth inhibition",
    "experimental_result": 1.7
  },
  {
    "compound": "COCn1c(C)c(C)c2c(=O)oc(=O)[nH]c21",
    "attribute_measured": "growth inhibition",
    "experimental_result": -23.2
  }
]

Attention now turns to another entry.
Please look up its growth inhibition: CC(C)(C)[Si](C)(C)OCCCC#CCO
12.1

Reference source: PubChem BioAssay (NCI)
